Hello, the source for this data is paper PMC8809517, in case you need it.

- system.under.test: T1, GFP-9S library array, motif 4 ND N98A;D124V (synthetic construct, N98A;D124V)
- T1 chain: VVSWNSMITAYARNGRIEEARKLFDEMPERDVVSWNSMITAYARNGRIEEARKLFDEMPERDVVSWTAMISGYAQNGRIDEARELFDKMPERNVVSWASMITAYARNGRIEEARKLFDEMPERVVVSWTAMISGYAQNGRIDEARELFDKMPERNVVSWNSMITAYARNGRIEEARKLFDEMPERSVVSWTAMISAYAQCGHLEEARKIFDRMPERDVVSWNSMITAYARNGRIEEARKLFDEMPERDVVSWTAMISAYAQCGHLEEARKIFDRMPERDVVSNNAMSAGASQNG
- method: high-throughput RNA pulldown from lysate on Ni-NTA beads; HRP: 50 mM Tris pH 8, 150 mM NaCl, 1 mM beta-mercaptoethanol, 50 ug/ml BSA, 3 ug/ml yeast RNA, 0.5% heparin; ITC and FP: Tris pH 8, 200 mM KCl, 5% glycerol; MST: 50 mM Tris pH 8, 200 mM NaCl, 1 mM DTT, BSA, heparin, 0.05% Tween 20
- assay.conditions: tags: N-terminal His-eGFP; label: 5' IRDye 800CW
readout.label: Kd (nM)

AUUAUACGUGA (ssRNA) [IR-rpoA-U] | 152
AUUAAACGUGA (ssRNA) [IR-rpoA-A] | 497
